biological target: von Willebrand factor (VWF) (Homo sapiens, UniProt P04275 SEQ:764-2813); assay: ELISA with anti-PEG detection; dPBS, 37 C, 2 h
Sequence (P04275 764-2813 Q852R): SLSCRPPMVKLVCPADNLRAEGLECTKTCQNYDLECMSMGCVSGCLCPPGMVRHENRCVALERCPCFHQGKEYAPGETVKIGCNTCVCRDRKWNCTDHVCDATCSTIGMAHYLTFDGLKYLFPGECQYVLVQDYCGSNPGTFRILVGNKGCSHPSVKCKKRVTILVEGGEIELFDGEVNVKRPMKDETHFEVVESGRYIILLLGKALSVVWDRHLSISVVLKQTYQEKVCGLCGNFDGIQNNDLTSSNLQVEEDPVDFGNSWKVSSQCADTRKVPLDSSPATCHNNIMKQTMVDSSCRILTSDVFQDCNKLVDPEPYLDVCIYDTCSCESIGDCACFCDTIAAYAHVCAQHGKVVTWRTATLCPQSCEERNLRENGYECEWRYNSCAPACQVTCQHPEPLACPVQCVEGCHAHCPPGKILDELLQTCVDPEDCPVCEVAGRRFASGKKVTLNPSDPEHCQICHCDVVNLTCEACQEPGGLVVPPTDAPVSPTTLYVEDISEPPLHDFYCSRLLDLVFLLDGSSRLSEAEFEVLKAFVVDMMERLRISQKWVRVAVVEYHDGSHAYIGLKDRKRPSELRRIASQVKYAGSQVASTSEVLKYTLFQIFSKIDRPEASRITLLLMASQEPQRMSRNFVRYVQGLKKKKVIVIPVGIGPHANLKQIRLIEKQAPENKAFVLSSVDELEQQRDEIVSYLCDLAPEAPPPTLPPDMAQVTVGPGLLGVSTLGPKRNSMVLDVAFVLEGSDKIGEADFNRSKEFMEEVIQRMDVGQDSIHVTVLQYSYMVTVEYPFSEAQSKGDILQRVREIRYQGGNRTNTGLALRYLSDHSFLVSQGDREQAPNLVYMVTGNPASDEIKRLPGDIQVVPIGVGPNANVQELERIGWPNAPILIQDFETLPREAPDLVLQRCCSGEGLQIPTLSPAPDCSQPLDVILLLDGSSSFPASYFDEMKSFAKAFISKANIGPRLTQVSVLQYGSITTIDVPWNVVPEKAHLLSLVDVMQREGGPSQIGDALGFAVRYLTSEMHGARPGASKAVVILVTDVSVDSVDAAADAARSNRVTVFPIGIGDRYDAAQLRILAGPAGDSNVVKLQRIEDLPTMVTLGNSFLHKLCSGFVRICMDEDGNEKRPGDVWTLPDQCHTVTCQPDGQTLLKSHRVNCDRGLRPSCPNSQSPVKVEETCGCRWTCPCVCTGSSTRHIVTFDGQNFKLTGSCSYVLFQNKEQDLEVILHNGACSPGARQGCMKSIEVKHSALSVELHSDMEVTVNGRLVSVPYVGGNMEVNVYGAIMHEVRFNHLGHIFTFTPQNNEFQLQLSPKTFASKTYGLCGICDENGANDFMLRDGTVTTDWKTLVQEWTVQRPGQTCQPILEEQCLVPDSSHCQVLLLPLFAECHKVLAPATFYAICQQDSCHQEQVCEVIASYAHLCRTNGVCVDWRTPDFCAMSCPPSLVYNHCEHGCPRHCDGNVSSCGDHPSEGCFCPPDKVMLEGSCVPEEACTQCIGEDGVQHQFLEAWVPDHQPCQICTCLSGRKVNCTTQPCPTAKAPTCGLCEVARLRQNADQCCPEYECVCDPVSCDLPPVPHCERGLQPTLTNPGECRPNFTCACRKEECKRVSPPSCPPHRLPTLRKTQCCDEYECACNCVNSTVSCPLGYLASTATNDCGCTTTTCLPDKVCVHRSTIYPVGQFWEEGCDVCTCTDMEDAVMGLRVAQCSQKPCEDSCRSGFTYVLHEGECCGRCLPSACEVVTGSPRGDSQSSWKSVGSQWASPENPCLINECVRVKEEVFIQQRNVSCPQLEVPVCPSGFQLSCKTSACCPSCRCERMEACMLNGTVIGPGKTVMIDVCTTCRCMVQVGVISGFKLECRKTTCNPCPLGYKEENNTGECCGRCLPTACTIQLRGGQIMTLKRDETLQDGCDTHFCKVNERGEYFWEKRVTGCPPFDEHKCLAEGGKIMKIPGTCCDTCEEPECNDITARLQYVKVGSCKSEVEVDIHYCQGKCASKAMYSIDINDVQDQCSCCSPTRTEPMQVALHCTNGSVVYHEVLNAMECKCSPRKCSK
attribute-measured: EC50 (nM)
Express your answer in nM, writing the number without its unit.

So what's the measured EC50 for this one? GCCAGGGACCUAAGACACAUGUCCCUGGC (ssRNA, all residues 2'-OMe; 5' PEG40K-NH; 3' idT (final t of SEQ 6)) [BT200]
331

Data credit: patent US20230038761
